Biological target: A/California/04/2009 (H1CA0409) recombinant HA (influenza A virus A/California/04/2009, UniProt P26140 18-529)
Assay: phage display panning (immunotube) against trimeric HA
readout type: binding result

Need binding result, item 2F1 (scFv) scFv: QVQLVQSGAEVKKPGSSVKVSCKASGGTFSSYAISWVRQAPGQGLEWMGGITPLFGTANYAQKFQGRVTITADDSTSTAYMELSSLRSEDTAVYYCARGPTLYSPPVFDVWGQGTLVTVSSGGGSGGGSGGGSGGGSQTVVTQEPSFSVSPGGTITLTCGLSSGSVSTTNYPSWYQQTPGRTPRTLIYNTNTRSSGVPDRFSGSILGNKAALTITGAQAGDESDYYCVLYMGRGIYVFGSGTKVSVL
binds

Need binding result, item 2H3 (scFv) scFv: QVQLVQSGAEVKKPGSSVKVSCKASGGPFSSYAISWVRQAPGQGLEWMGGIIPIFGTANYAQKFQGRVTITADESTSTAYMELSSLRSEDTAVYYCARGTDYSGYRGFDVWGQGTLVTVSSGGGSGGGSGGGSGGGSQTVVTQEPSFSVSPGGTVTLTCALSSGSVSSFNYASWYQQTPGQAPRTLISNTNTRSSGVPDRFSGSILGNKATLTITGAQADDESHYYCALYVGGGISVFGGGTKLTVL
binds

Need binding result, item 1H2 (scFv) scFv: QVQLVQSGAEVKKPGSSVKVSCKASGGPFRSYAISWVRQAPGQGLEWMGGIIPIFGTANYAQKFQGRVTITADESTSTAYMELSSLRSEDTAVYYCARGGVYSFDVWGQGTLVTVSSGGGSGGGSGGGSGGGSQSGLTQPPSASGTPGQRVTISCSGSGSNVGSNVVNWYQHLPGTAPKLLIYRNNQRPSGVPDRFSGSKSGTSASLAISGLQSEDEADYYCAAWDDRLNGFVFGTGTKVTVL
binds

Origin of measurements: patent US20220135655A1
